Below: a set of entries, each annotated with reported pKd.
- study system: T1, canine NGF tagged at the C-terminus with the Flag tag (canine, UniProt A0A8I3PYI3 122-241)
- T1 construct: mature; Expressed with baculovirus technology; also called feline NGF (processed form identical)
- T1 sequence (A0A8I3PYI3 entry or part of it): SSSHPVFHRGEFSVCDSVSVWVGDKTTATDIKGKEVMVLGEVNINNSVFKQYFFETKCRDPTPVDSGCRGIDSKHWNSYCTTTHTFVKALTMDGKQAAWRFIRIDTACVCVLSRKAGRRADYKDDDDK
- protocol: SPR off-rate screen, Fab-SASA on BSA chip
pKd here: minus log base 10 of the concentration, concentration in moles per litre.

binder	pKd
felinized clone 101 Fab-SASA variant D104N (VH) (Fab, V domains shown, not shown: small tags and cut ends) VH: DVQLVESGGDLVKPGGSLRLTCVASGLSLTSSSMSWVRQAPGKGLQWVSTIYSNGGTYYTDSVKGRFTISKDNAENTLYLQMNNLKTEDTATYYCASIYYYDANYLHWYFDFWGQGALVTVSS VL: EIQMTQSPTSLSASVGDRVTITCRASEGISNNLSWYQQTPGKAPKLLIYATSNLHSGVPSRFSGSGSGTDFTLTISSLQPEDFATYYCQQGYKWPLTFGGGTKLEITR	8.73

# input for lookup
So, felinized clone 101 Fab-SASA variant S62D (VH) (Fab, V domains shown, not shown: small tags and cut ends) VH: DVQLVESGGDLVKPGGSLRLTCVASGLSLTSSSMSWVRQAPGKGLQWVSTIYSNGGTYYTDDVKGRFTISKDNAENTLYLQMNNLKTEDTATYYCASIYYYDADYLHWYFDFWGQGALVTVSS VL: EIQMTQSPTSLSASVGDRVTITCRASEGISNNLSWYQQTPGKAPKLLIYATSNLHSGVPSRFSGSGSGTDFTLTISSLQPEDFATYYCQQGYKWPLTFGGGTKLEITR ? Its pKd was 8.73
